- Assay Remarks: physchem
- Condition Description: aqueous buffer
Observable: solubility (µg/mL)

- O=C1CCc2ccc(OCCCCN3CCN(c4cccc(Cl)c4Cl)CC3)cc2N1 [ARP, aripiprazole]: 30
